# ASSAY COMMENT: Comparison of toxicity of orally and intravenously administered brincidofovir (rat intestine)
# Type: in vivo
# ASSAY CONDITIONS: rat, in vivo; oral, single dose 100 mg/kg; read-out: Exposure AUC
MEASURED PROPERTY: AUC (ng·h/mL)

record_smiles=CCCCCCCCCCCCCCCCOCCCOP(=O)(O)CO[C@H](CO)Cn1ccc(N)nc1=O val=13600

###

# ASSAY COMMENT: Phase 2 toxicokinetics of brincidofovir and cidofovir in plasma
# Type: in vivo, Sprague-Dawley CD rats
# ASSAY CONDITIONS: female, Sprague-Dawley CD, rat, plasma, iv, 1 mg/kg, brincidofovir in plasma; 1 mg/kg 2-hour IV infusion, Female rats, Day 1
MEASURED PROPERTY: Cmax

compound="CCCCCCCCCCCCCCCCOCCCOP(=O)(O)CO[C@H](CO)Cn1ccc(N)nc1=O [Brincidofovir]" measured_property=Cmax val="191 ng/mL"

###

# ASSAY COMMENT: IV BCV single ascending dose study: plasma BCV and CDV PK
# Type: in vivo, human
# ASSAY CONDITIONS: human, plasma, iv, 50 mg, plasma BCV, Cohort 4, BCV 50 mg 4 h IV infusion, n = 9, geometric mean; read-out: Cmax
MEASURED PROPERTY: Cmax (ng/mL)

compound="CCCCCCCCCCCCCCCCOCCCOP(=O)(O)CO[C@H](CO)Cn1ccc(N)nc1=O [Brincidofovir]" val=1590

###

# ASSAY COMMENT: 28-day study toxicokinetics of brincidofovir and CDV in plasma
# Type: in vivo, Sprague-Dawley CD rats
# ASSAY CONDITIONS: both sexes, Sprague-Dawley CD, rat, in vivo, iv, 4 mg/kg, plasma brincidofovir; Day 1; 4 mg/kg; combined male and female; Median
MEASURED PROPERTY: AUC(0-t) (ng·h/mL)

record_smiles=CCCCCCCCCCCCCCCCOCCCOP(=O)(O)CO[C@H](CO)Cn1ccc(N)nc1=O measured_property=AUC(0-t) val=2320

###

# ASSAY COMMENT: Phase 2 toxicokinetics of brincidofovir and cidofovir in plasma
# Type: in vivo, Sprague-Dawley CD rats
# ASSAY CONDITIONS: male, Sprague-Dawley CD, rat, plasma, intravenous, 15 mg/kg, plasma; 15 mg/kg; male rats; Day 1; 24 h; read-out: C (Concentration), individual animals
MEASURED PROPERTY: concentration at 24 h (ng/mL)

record_smiles=CCCCCCCCCCCCCCCCOCCCOP(=O)(O)CO[C@H](CO)Cn1ccc(N)nc1=O unit_annotation=ng/mL val=1.2

###

# concentration at 8 h per record follows
# ASSAY COMMENT: Phase 2 toxicokinetics of brincidofovir and cidofovir in plasma
# Format: in vivo, Sprague-Dawley CD rats
# ASSAY CONDITIONS: male, Sprague-Dawley CD, rat, plasma, intravenous, 1 mg/kg, plasma; brincidofovir 1 mg/kg 2-h IV infusion; male rats; Day 1; 8 h; BLQ imputed as zero; read-out: Imputed Concentration, Mean
MEASURED PROPERTY: concentration at 8 h (ng/mL)

record_smiles=CCCCCCCCCCCCCCCCOCCCOP(=O)(O)CO[C@H](CO)Cn1ccc(N)nc1=O unit_annotation=ng/mL val=0
record_smiles=Nc1ccn(C[C@@H](CO)OCP(=O)(O)O)c(=O)n1 unit_annotation=ng/mL val=1.95

From: patent US20170368082A1
